- Measured On: UniProtKB Q582T2
- Sequence (Q582T2 1-253): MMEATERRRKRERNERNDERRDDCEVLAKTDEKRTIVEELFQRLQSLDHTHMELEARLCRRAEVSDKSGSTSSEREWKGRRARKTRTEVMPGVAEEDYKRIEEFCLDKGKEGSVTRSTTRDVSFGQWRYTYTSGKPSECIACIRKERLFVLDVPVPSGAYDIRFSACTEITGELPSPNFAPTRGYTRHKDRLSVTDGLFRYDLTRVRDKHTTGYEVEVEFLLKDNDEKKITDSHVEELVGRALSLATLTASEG
- Test: TLC assay for 32Pi release from [γ-32P]ATP, TbCet1
- Measurement Setup: IC50 TbCet1 by 32P assay, 2.2 nM TbCet1, 0.2 mM ATP, 2 mM Mn2+, 10 min 37°C
Measurement Kind: pIC50
Would you please state pIC50, meaning minus log10 of the concentration in mol/L, as a bare number?

// worked examples, pIC50 included
O=C(OC[C@H]1O[C@@H](OC(=O)c2cc(O)c(O)c(O)c2)[C@H](OC(=O)c2cc(O)c(O)c(O)c2)[C@@H](OC(=O)c2cc(O)c(O)c(O)c2)[C@@H]1OC(=O)c1cc(O)c(O)c(O)c1)c1cc(O)c(O)c(O)c1 [Compound 2A, pentagalloylglucose]    7.34
O=c1c(O)c(-c2cc(O)c(O)c(O)c2)oc2cc(O)cc(O)c12 [Compound 4B, myricetin]    6.44
O=C(/C=C/c1ccc(O)cc1)O[C@@H]1CC(O)(C(=O)O)C[C@@H](OC(=O)/C=C/c2ccc(O)cc2)C1O (stereo partly shown) [Compound 1M, 3,5-dicoumaroylquinic acid]    4.62

We next turn to a different molecule, shown below.
In: Reported pIC50 for O=C(CCO)c1ccc(O)cc1 [Compound 5] : what is it?
Out: 6.19

====

- Measured On: SceCet1 (Saccharomyces cerevisiae)
- Construct: C-terminal catalytic domain (aa 241 to 539) of S. cerevisiae RTPase (SceCet1); made in house; host or cells: Escherichia coli
- Sequence (O13297 241-539): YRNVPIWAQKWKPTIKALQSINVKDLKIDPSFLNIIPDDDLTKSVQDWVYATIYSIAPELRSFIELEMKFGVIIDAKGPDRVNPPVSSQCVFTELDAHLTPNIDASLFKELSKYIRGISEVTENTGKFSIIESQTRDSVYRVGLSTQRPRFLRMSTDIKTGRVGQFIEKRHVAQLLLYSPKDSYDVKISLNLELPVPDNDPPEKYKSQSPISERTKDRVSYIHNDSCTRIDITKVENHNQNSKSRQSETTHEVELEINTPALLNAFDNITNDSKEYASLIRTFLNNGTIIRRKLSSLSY
- Test: TLC assay for 32Pi release from [γ-32P]ATP, SceCet1
- Type: biochemical
Measurement Kind: IC50 (µM)
The response must be a number in µM with no trailing unit.

O=C(/C=C/c1ccc(O)c(O)c1)O[C@@H]1C[C@](OC(=O)/C=C/c2ccc(O)c(O)c2)(C(=O)O)C[C@@H](OC(=O)/C=C/c2ccc(O)c(O)c2)[C@H]1OC(=O)/C=C/c1ccc(O)c(O)c1    7.1

We next turn to a different compound, shown below.
In: Reported IC50 for Oc1cc(O)c2c(c1)O[C@H](c1ccc(O)c(O)c1)[C@H](O)C2 [Compound 4C, epicatechin] : what is it?
Out: 8.7

====

- Measured On: CthTTM (Acetivibrio thermocellus)
- Test: TLC assay for 32Pi release from [γ-32P]ATP, CthTTM
- Type: biochemical, Clostridium thermocellum
- Measurement Setup: 500 nM CthTTM, 37°C; read-out: IC50 CthTTM
Measurement Kind: IC50 (µM)
The response must be a number in µM with no trailing unit.

// worked examples, IC50 included
Oc1cc(O)c2c(c1)O[C@H](c1ccc(O)c(O)c1)[C@H](O)C2 [Compound 4C, epicatechin]    26
O=C(/C=C/c1ccc(O)c(O)c1)OC1[C@H](OC(=O)/C=C/c2ccc(O)c(O)c2)CC(O)(C(=O)O)C[C@H]1OC(=O)/C=C/c1ccc(O)c(O)c1 (stereo in doubt) [Compound 1D, 3,4,5-Tricaffeoylquinic acid]    160

In: Reported IC50 for O=C(CCO)c1ccc(O)cc1 [Compound 5] : what is it?
Out: 9.2

====

- Measured On: Lef4 (Autographa californica nuclear polyhedrosis virus, UniProt P41477)
- Construct: the N-terminal RTPase domain (aa 1 to 236) of AcNPV Lef4 capping enzyme; HisSmt3 (N, cleaved yes); made in house; host or cells: Escherichia coli
- Sequence (P41477 1-236): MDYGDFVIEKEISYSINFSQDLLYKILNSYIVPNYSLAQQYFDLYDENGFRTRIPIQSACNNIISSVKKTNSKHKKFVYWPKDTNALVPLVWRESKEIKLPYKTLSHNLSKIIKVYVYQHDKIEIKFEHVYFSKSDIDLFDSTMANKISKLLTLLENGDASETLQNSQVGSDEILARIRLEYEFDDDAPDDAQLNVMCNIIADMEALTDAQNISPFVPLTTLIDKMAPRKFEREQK
- Test: TLC assay for 32Pi release from [γ-32P]ATP, Lef4;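 also: Lef4 RNA triphosphatase cleaving radiolabelled ATP over 10 min at 37°C, hydrolysis set relative to inhibitor-free 5% DMSO controls, comparisons made against TbCet1 tested the same way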
- Format: biochemical, Autographa californica nucleopolyhedrovirus (AcNPV)
- Measurement Setup: ratio in parentheses
IC50/IC50 TbCet1, Lef4 under 30 gets class 1, anything at or over 30 gets class 0.

Worked cases, answers included:
O=C(/C=C/c1ccccc1)O[C@@H]1C[C@](OC(=O)/C=C/c2ccccc2)(C(=O)O)C[C@@H](OC(=O)/C=C/c2ccccc2)[C@H]1OC(=O)/C=C/c1ccccc1    class 1
O=C(/C=C/c1ccc(O)c(O)c1)O[C@@H]1C[C@](OC(=O)/C=C/c2ccc(O)c(O)c2)(C(=O)O)C[C@@H](OC(=O)/C=C/c2ccc(O)c(O)c2)[C@H]1O    class 1
O=C(/C=C/c1ccc(O)c(O)c1)O[C@@H]1C[C@](OC(=O)/C=C/c2ccc(O)c(O)c2)(C(=O)O)C[C@@H](O)[C@H]1O    class 0

In: Input Oc1cc(O)c2c(c1)O[C@H](c1ccc(O)c(O)c1)[C@H](O)C2 [Compound 4C, epicatechin] ; condition: IC50/IC50 TbCet1, Lef4 strictly below 30. Does it hold?
Out: class 0

In: Please do the same for O=C(C=Cc1ccccc1)OC1C=C(C(=O)O)CC(OC(=O)C=Cc2ccccc2)C1OC(=O)C=Cc1ccccc1 (stereo not shown) as well.
Out: class 1

====

- Measured On: TbCet1 (Trypanosoma brucei brucei)
- Sequence (Q582T2 1-253): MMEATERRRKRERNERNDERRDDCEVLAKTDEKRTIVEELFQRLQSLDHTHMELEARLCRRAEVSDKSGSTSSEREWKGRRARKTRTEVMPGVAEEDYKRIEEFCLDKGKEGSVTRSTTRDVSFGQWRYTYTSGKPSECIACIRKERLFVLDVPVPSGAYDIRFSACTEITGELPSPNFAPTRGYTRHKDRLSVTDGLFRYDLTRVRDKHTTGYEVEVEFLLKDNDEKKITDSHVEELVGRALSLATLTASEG
- Test: TLC assay for 32Pi release from [γ-32P]ATP, TbCet1
- Measurement Setup: read-out: IC50 TbCet1 by 32P assay; 2.2 nM TbCet1, 0.2 mM ATP, 2 mM Mn2+, 10 min 37°C
Recorded pIC50 by entry
Would you please state pIC50, meaning minus log10 of the concentration in mol/L, as a bare number?

// worked examples, pIC50 included
O=C(/C=C/c1ccc(O)cc1)O[C@@H]1[C@H](O)C[C@@](O)(C(=O)O)C[C@H]1OC(=O)/C=C/c1ccc(O)cc1    5.89
O=C(CCO[C@@H]1O[C@H](CO)[C@@H](O)[C@H](O)[C@H]1O)c1ccc(O)cc1    6.18
O=C(/C=C/c1ccc(O)c(O)c1)O[C@@H]1CC(O)(C(=O)O)C[C@@H](OC(=O)/C=C/c2ccc(O)c(O)c2)C1O (some centres unmarked)    7.15
COc1cc(C=CC(=O)OC2[C@H](O)CC(O)(C(=O)O)C[C@H]2O)ccc1O (some centres unmarked)    3.80

We next turn to a different compound, shown below.
In: Reported pIC50 for `COc1cc(/C=C/C(=O)O[C@@H]2C[C@](O)(C(=O)O)C[C@@H](O)[C@H]2O)ccc1O` : what is it?
Out: 4.92

====

Recorded IC50 by entry
- Measured On: MimiCE (Acanthamoeba polyphaga mimivirus, UniProt Q5UQX1)
- Construct: the N-terminal RTPase domain (amino acids [aa] 1 to 237) of mimivirus capping enzyme (MimiCE); HisSmt3 (N, cleaved yes); made in house; host or cells: Escherichia coli
- Sequence (Q5UQX1 1-237): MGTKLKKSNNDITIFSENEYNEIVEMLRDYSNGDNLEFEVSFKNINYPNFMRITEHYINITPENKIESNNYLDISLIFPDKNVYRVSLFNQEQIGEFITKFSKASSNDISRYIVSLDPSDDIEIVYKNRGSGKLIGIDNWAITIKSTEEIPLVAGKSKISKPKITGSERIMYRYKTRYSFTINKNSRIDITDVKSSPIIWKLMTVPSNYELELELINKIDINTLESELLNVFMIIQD
- Test: biochemical
- Format: biochemical
- Measurement Setup: read-out: IC50 MimiCE; 7 nM MimiCE, 37°C
The response must be a number in µM with no trailing unit.

// worked examples, IC50 included
O=C(/C=C/c1ccc(O)c(O)c1)OC1[C@H](OC(=O)/C=C/c2ccc(O)c(O)c2)CC(O)(C(=O)O)C[C@H]1OC(=O)/C=C/c1ccc(O)c(O)c1 (stereo in doubt)    16
O=C(/C=C/c1ccc(O)cc1)O[C@@H]1[C@H](O)C[C@@](O)(C(=O)O)C[C@H]1OC(=O)/C=C/c1ccc(O)cc1    52
O=C(/C=C/c1ccc(O)c(O)c1)O[C@@H]1C[C@](OC(=O)/C=C/c2ccc(O)c(O)c2)(C(=O)O)C[C@@H](O)[C@H]1O    3.7
O=C(Oc1cc(C(=O)O[C@@H]2C[C@@](O)(C(=O)O)C[C@@H](OC(=O)c3cc(O)c(O)c(O)c3)[C@@H]2O)cc(O)c1O)c1cc(O)c(O)c(O)c1    3.4

We next turn to a different compound, shown below.
In: Reported IC50 for `O=C(CCO[C@@H]1O[C@H](CO)[C@@H](O)[C@H](O)[C@H]1O)c1ccc(O)cc1` : what is it?
Out: 120

====

Recorded IC50/IC50 TbCet1, CthTTM by entry
- Measured On: CthTTM (Acetivibrio thermocellus, UniProt A3DIJ8)
- Sequence (A3DIJ8 whole entry): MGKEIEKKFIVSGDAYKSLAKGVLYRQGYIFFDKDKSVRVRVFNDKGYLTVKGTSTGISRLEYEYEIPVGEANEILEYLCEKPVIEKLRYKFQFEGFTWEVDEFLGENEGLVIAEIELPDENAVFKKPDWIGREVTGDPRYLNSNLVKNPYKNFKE
- Test: TLC assay for 32Pi release from [γ-32P]ATP, CthTTM
- Format: biochemical, Clostridium thermocellum
- Measurement Setup: ratio in parentheses
Field format: numeric only.

In: Reported IC50/IC50 TbCet1, CthTTM for `O=C(CCO)c1ccc(O)cc1` : what is it?
Out: 14

In: Please do the same for `O=C(/C=C/c1ccc(O)c(O)c1)O[C@@H]1C[C@](OC(=O)/C=C/c2ccc(O)c(O)c2)(C(=O)O)C[C@@H](OC(=O)/C=C/c2ccc(O)c(O)c2)[C@H]1OC(=O)/C=C/c1ccc(O)c(O)c1` as well.
Out: 846

In: Please do the same for `O=C(/C=C/c1ccccc1)O[C@@H]1C[C@](OC(=O)/C=C/c2ccccc2)(C(=O)O)C[C@@H](OC(=O)/C=C/c2ccccc2)[C@H]1OC(=O)/C=C/c1ccccc1` as well.
Out: 11

In: Please do the same for `O=C(/C=C/c1ccc(O)c(O)c1)O[C@@H]1C[C@](OC(=O)/C=C/c2ccc(O)c(O)c2)(C(=O)O)C[C@@H](O)[C@H]1O` as well.
Out: 162

In: Please do the same for `O=C(CCO[C@@H]1O[C@H](CO)[C@@H](O)[C@H](O)[C@H]1O)c1ccc(O)cc1` as well.
Out: 44
